System: synthesis of LTB4 by rat glycogen-elicited polymorphonuclear leukocytes (PMN)
protocol-summary: inhibition of LTB4 synthesis by rat glycogen-elicited PMN (Example 72)
Format: cell-based, rat (female Wistar)
study-conditions: Leukocyte, at 10 mM, negative number denotes potentiation
readout-type: inhibition at 10000 µM (%)
Numeric only. Scale: %

input: Query inhibition at 10000 µM on synthesis of LTB4 by rat glycogen-elicited polymorphonuclear leukocytes (PMN) for Cc1c(CC(=O)O)c2cc(OCc3ccc4ccccc4n3)ccc2n1Cc1ccccc1 [Example 26, hydrate]
output: 85

input: Please answer likewise for CC1=C(CC(=O)O)c2cc(OCc3ccc4ccccc4n3)ccc2C1=Cc1ccc(OCc2ccc3ccccc3n2)cc1
output: 100

input: Please answer likewise for CC1(CC(=O)O)OCCc2c1[nH]c1ccc(OCc3ccc4ccccc4n3)cc21 (stereo not shown)
output: 91

###

tested-target: UniProtKB P14555
Sequence (P14555 21-144): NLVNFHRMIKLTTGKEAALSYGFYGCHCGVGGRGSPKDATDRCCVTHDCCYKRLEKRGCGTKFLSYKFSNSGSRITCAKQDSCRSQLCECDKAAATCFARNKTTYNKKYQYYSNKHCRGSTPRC
protocol-summary: in vitro isolated phospholipase A2 assay, human synovial fluid PLA2 (Example 74)
study-conditions: Table III; read-out: IC50 HSF (human synovial fluid)
IC50 under 20 µM gets Condition met, anything at or over 20 µM gets Condition not met.

Known results for molecules:
molecule: Cc1c(CC(=O)O)c2cc(OCc3ccccc3)ccc2n1Cc1ccc(Cl)cc1
label: Condition not met
//
molecule: CCCCCCn1c(C)c(CC(=O)O)c2cc(OCc3ccc4ccccc4n3)ccc21 [Example 30, hydrate]
label: Condition met
//
molecule: CSc1ccc(/C=C2/C(C)=C(CC(=O)O)c3cc(OCc4ccc5ccccc5n4)ccc32)cc1
label: Condition met

input: Just wondering, is IC50 of COc1ccc2c(c1)c(CC(=O)O)c(C)n2C(=O)c1ccc(Cl)cc1 [indomethacin, reference compound] below 20 µM?
output: Condition not met

input: Please answer likewise for Cc1c(CC(=O)O)c2cc(OCc3ccc4ccccc4c3)ccc2n1Cc1ccc(Cl)cc1
output: Condition not met

###

tested-target: human platelet PLA2 (Homo sapiens)
Construct: Semi-purified human platelet acid extract PLA2; from tissue; host or cells: human platelets (semi-purified acid extract)
protocol-summary: in vitro isolated phospholipase A2 assay, human platelet PLA2 (Example 74)
Type: biochemical
Design: dose or concentration left out as unconfirmed
study-conditions: read-out: % Inhibition, HP (human platelet)
Output true (1) for inhibition not less than 10%; output false (0) otherwise.

input: Entry Cc1c(CC(=O)NO)c2cc(OCc3nc4ccccc4s3)ccc2n1Cc1ccc(Cl)cc1 : is its inhibition no less than 10%?
output: true (1)

###

tested-target: UniProt:P14555
protocol-summary: in vitro isolated phospholipase A2 assay, human synovial fluid PLA2 (Example 74)
Assay type: biochemical
Parameters: dose or concentration left out as unconfirmed
study-conditions: read-out: % Inhibition, HSF (human synovial fluid)
In this section we review reported inhibition values for a set of compounds.
Numeric only. Scale: %

Examples with answers:
compound: CCCCCn1c(C)c(CC(=O)O)c2cc(OCc3ccc4ccccc4n3)ccc21 [Example 29, hemihydrate]
tested-target: UniProt:P14555
units-text: %
inhibition: 53
--
compound: CCCCCCOc1ccc2c(c1)c(CC(=O)O)c(C)n2Cc1ccc(Cl)cc1 [Example 19]
tested-target: UniProt:P14555
units-text: %
inhibition: 45

input: Suppose we examine the compound CCCCCCn1c(C)c(CC(=O)O)c2cc(OCc3ccc4ccccc4n3)ccc21 [Example 30, hydrate] ; what inhibition value has been reported?
output: 46

input: Please answer likewise for Cc1c(CC(=O)O)c2cc(OCc3csc(-c4ccccc4)n3)ccc2n1Cc1ccc2ccccc2c1 [Example 67]
output: 49

###

tested-target: LTD4 (isolated guinea pig trachea) (Cavia porcellus)
Sequence (Q2NNR5 1-340): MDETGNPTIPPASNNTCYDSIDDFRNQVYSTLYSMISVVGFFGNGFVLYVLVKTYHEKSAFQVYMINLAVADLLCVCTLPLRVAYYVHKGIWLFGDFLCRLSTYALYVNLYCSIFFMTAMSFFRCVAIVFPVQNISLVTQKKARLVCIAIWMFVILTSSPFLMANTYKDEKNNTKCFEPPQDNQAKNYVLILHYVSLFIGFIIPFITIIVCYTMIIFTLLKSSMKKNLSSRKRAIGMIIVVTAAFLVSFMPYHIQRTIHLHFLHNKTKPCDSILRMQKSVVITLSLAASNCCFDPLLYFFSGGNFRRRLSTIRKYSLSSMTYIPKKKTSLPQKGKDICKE
protocol-summary: in vitro isolated guinea pig trachea assay, LTD4 antagonism (Example 77)
Parameters: from tissue; host or cells: isolated trachea rings of male Hartley guinea pigs; species or system guinea pig (male Hartley)
study-conditions: Table VII; 1 × 10^-5 M
In this section we review reported Kb values for a set of compounds.
Numeric only. Scale: µM

Examples with answers:
compound: CCOC(=O)Cc1c(C)n(Cc2ccccc2)c2ccc(OCc3nc4ccccc4s3)cc12
units-text: µM
Kb: 3.98
--
compound: Cc1c(CC(=O)O)c2cc(OCc3ccc4ccccc4n3)ccc2n1Cc1ccc2ccccc2n1
units-text: µM
Kb: 1.41
--
compound: Cc1c(CC(=O)O)c2cc(OCc3ccc4ccccc4n3)ccc2n1Cc1ccc(Cl)cc1
units-text: µM
Kb: 1
--
compound: CCC1(CC(=O)O)OCCc2c1[nH]c1ccc(OCc3ccc4ccccc4n3)cc21 (centres unmarked)
units-text: µM
Kb: 0.55

input: Suppose we examine the compound CCN(CC)C(=O)Cc1c(C)n(Cc2ccccc2)c2ccc(OCc3nc4ccccc4s3)cc12 ; what Kb value has been reported?
output: 2.51

###

tested-target: UniProtKB P14555
Sequence (P14555 21-144): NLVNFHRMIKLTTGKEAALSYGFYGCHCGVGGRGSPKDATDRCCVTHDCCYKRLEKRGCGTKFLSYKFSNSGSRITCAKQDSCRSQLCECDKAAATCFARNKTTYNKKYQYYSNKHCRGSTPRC
protocol-summary: in vitro isolated phospholipase A2 assay, human synovial fluid PLA2 (Example 74)
Assay type: biochemical
Design: dose or concentration left out as unconfirmed
study-conditions: read-out: % Inhibition, HSF (human synovial fluid)
Output TRUE for inhibition not less than 30%; output FALSE otherwise.

molecule: Cc1c(CC(=O)O)c2cc(OCc3nc4ccccc4s3)ccc2n1Cc1ccc(Cl)cc1
tested-target: UniProtKB P14555
label: TRUE

molecule: Cc1c(CC(=O)O)c2cc(OCc3csc(-c4ccccc4)n3)ccc2n1Cc1ccc(Cl)cc1
tested-target: UniProtKB P14555
label: TRUE

molecule: Cc1c(CC(=O)N(C)O)c2cc(OCc3nc4ccccc4s3)ccc2n1Cc1ccc(Cl)cc1
tested-target: UniProtKB P14555
label: FALSE

molecule: Cc1c(CC(=O)O)c2cc(OCc3ccc4ccccc4n3)ccc2n1Cc1ccc(F)cc1 [Example 24, hemihydrate]
tested-target: UniProtKB P14555
label: TRUE

Query molecule follows.
input: Entry Cc1c(CC(=O)O)c2cc(OCc3csc(-c4ccc(C(F)(F)F)cc4)n3)ccc2n1Cc1ccc(Cl)cc1 : is its inhibition no less than 30%?
output: TRUE

###

In this section we review reported inhibition values for a set of compounds.
tested-target: human platelet PLA2 (Homo sapiens, UniProt P14555)
Construct: Semi-purified human platelet acid extract PLA2; from tissue; host or cells: human platelets (semi-purified acid extract)
protocol-summary: in vitro isolated phospholipase A2 assay, human platelet PLA2 (Example 74)
Format: biochemical
Design: dose or concentration left out as unconfirmed
study-conditions: read-out: % Inhibition, HP (human platelet)
Numeric only. Scale: %

Examples with answers:
compound: Cc1c(CC(=O)O)c2cc(OCc3csc(-c4ccc(Cl)cc4)n3)ccc2n1Cc1ccc(Cl)cc1 [Example 69]
inhibition [%]: 8
//
compound: CC1=C(CC(=O)O)c2cc(OCc3ccc4ccccc4n3)ccc2C1=Cc1ccc(OCc2ccc3ccccc3n2)cc1 [Example 41]
inhibition [%]: 90

input: Suppose we examine the compound Cc1c(CC(=O)O)c2cc(OCc3csc(-c4ccccc4)n3)ccc2n1Cc1ccc(C(C)(C)C)cc1 [Example 62, hemihydrate] ; what inhibition value has been reported?
output: 3

input: Please answer likewise for CC(=O)OCCc1c(C)n(Cc2ccccc2)c2ccc(OCc3csc(-c4ccccc4)n3)cc12 [Example 56]
output: 2

input: Please answer likewise for Cc1c(CC(=O)O)c2cc(OCc3csc(-c4ccccc4)n3)ccc2n1Cc1csc(-c2ccc(Cl)cc2)n1 [Example 65]
output: 85

input: Please answer likewise for Cc1c(CC(=O)N(C)O)c2cc(OCc3nc4ccccc4s3)ccc2n1Cc1ccc(Cl)cc1 [Example 49]
output: 6

###

In this section we review reported IC50 values for a set of compounds.
tested-target: UniProt:P14555
protocol-summary: in vitro isolated phospholipase A2 assay, human synovial fluid PLA2 (Example 74)
study-conditions: Table III; read-out: IC50 HSF (human synovial fluid)
Description: The compounds of the invention are tested in an in vitro isolated phospholipase A2 assay to determine the ability of the test compounds to inhibit the release of arachidonic acid from an arachidonic acid-containing substrate by the action of phospholipase A2 enzyme from human and non-human sources. […] The sample is loaded onto the columns and slowly drawn through them. […] The arachidonic acid is transferred to scintillation vials and quantitated by b-counting analysis. […]
Numeric only. Scale: µM

compound: Cc1c(CC(=O)O)c2cc(OCc3ccc4ccccc4n3)ccc2n1Cc1ccc2ccccc2n1
units-text: µM
IC50: 27

input: Suppose we examine the compound Cc1c(CC(=O)O)c2cc(OCc3ccc4ccccc4n3)ccc2n1Cc1ccc(Cl)cc1 [Example 16, hydrate] ; what IC50 value has been reported?
output: 4.1

input: Please answer likewise for Cc1c(CC(=O)O)c2cc(OCc3ccc4ccccc4n3)ccc2n1Cc1ccccc1 [Example 26, hydrate]
output: 2.6

Entry source: patent US5420289A
